Target: Human sputum neutrophil elastase (Homo sapiens, UniProt P08246)
Sequence (P08246 30-247 limits assumed): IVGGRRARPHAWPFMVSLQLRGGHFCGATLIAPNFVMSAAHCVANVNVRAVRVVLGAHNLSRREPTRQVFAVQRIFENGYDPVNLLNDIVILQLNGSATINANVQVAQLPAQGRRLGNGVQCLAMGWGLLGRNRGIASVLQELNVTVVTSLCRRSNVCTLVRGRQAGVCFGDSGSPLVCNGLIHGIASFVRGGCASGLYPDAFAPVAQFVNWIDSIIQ
Assay: Inhibitor IC50 against human neutrophil elastase (fluorogenic MeOSuc-AAPV-AMC substrate)
Settings: 20 min preincubation, read-out: HNE IC50
pIC50: −log10 of the molar value.
Entries and their pIC50 values follow.

{"columns": ["query_smiles", "pIC50"],
 "data": [
  ["CCc1cccc2nc(-c3cccnc3N3CCCN(C)CC3)oc(=O)c12", "> 7.82"],
  ["CCc1cc(OC)cc2nc(-c3cccnc3N3CCC(CN(C)C)CC3)oc(=O)c12", "7.22 to 7.80"],
  ["Cc1cccc2nc(-c3cccc[n+]3[O-])oc(=O)c12", "< 6.82"],
  ["CCc1cccc2nc(-c3ncccc3-n3ccnc3)oc(=O)c12", "> 7.82"],
  ["COc1cc(C2CC2)c2c(=O)oc(-c3cccnc3N3CC[C@H](N(C)C)C3)nc2c1", "6.82 to 7.21"]
]}
